Target: AChE (Electrophorus electricus)
Construct: native enzyme, Type V-S lyophilized powder, Sigma-Aldrich
Sequence (O42275 24-633): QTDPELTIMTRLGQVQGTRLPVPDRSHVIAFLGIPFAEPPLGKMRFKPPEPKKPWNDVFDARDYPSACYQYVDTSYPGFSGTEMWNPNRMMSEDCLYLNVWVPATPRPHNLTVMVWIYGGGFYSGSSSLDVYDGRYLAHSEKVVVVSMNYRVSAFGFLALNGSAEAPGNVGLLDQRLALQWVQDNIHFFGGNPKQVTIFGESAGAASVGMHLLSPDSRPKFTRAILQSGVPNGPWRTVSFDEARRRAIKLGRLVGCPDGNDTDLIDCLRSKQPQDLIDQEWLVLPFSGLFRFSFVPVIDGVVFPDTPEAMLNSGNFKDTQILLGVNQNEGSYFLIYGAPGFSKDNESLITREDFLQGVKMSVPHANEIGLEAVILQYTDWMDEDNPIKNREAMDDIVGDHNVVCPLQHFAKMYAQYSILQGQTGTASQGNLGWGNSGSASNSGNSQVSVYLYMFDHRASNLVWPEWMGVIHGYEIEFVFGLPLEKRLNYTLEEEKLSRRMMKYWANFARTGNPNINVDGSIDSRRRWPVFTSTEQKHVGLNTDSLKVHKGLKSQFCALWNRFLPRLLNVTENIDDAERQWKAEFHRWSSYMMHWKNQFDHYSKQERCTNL
Assay: Ellman colorimetric assay
Assay type: biochemical
Details: read-out: IC50 ± SD ^a / AChE ^a
Returns: string. Value is Criterion met if measured IC50 is below 2 µM, and Criterion not met if it is greater than or equal to it.

Solved cases (3 shown):
Smiles Data	Measured Target	Cat
O=C(Oc1ccc2[nH]cc(CCNCc3ccccc3)c2c1)N1CCC1	AChE (Electrophorus electricus)	Criterion met
CCCCCNC(=O)Oc1ccc2[nH]cc(CCN)c2c1	AChE (Electrophorus electricus)	Criterion not met
O=C(Oc1ccc2[nH]cc(CCNCc3ccccc3)c2c1)N1CCCC1	AChE (Electrophorus electricus)	Criterion met

Threshold test, IC50 < 2 µM: `CCCCCCCNC(=O)Oc1ccc2[nH]cc(CCNCc3ccccc3)c2c1`
Criterion met

// repeat for `CCCCCNC(=O)Oc1ccc2[nH]cc(CCNCc3ccccc3)c2c1` and report
Criterion met

// repeat for `O=C(NC1CCCCC1)Oc1ccc2[nH]cc(CCNCc3ccccc3)c2c1` and report
Criterion not met

// repeat for `CCCCN(CCCC)C(=O)Oc1ccc2[nH]cc(CCNCc3ccccc3)c2c1` and report
Criterion not met

// repeat for `CN(C)C(=O)Oc1ccc2[nH]cc(CCNCc3ccccc3)c2c1` and report
Criterion met

// repeat for `CCCCCCNC(=O)Oc1ccc2[nH]cc(CCNCc3ccccc3)c2c1` and report
Criterion not met

// repeat for `O=C(Oc1ccc2[nH]cc(CCNCc3ccccc3)c2c1)N1CCCCC1` and report
Criterion not met
